# experimental.details: Tmax in Sprague-Dawley rat at 10 mg/kg, iv
# Assay type: ADME, organism-based
# conditions.used: in vivo
measure: Tmax (min)
Give bare numbers, in min.

Reported Tmax for CN(C)C(=O)c1cc2cnc(Nc3ccc(C(=O)NCCCCCCNc4cccc5c4C(=O)N(C4CCC(=O)NC4=O)C5=O)cc3)nc2n1C1CCCC1 (stereo unspecified) : what is it?
45

###

# experimental.details: Cmax in Sprague-Dawley rat at 10 mg/kg, iv
# Type: ADME, organism-based
# Set-up: route intravenous, dose 10 mg/kg
# conditions.used: in vivo
Provide the recorded Cmax for the entries that follow.
One number for each entry, in µg/mL.

molecule: CN(C)C(=O)c1cc2cnc(Nc3ccc(C(=O)NCCCCCCNc4cccc5c4C(=O)N(C4CCC(=O)NC4=O)C5=O)cc3)nc2n1C1CCCC1 (configuration not stated)
unit.info: µg/mL
Cmax: 59.9

Turning now to a further record.
Reported Cmax for CN(C)C(=O)c1cc2cnc(Nc3ccc(C(=O)NCCCCCCNc4cccc5c4C(=O)N(C4CCC(=O)N(COC(=O)C(C)(C)C)C4=O)C5=O)cc3)nc2n1C1CCCC1 (configuration not stated) : what is it?
111
